- System: U251 CNS
- ASSAY_PROTOCOL: NCI tumour cell line growth inhibition, 48 h
RESULT_TYPE: TGI

Worked cases, TGI given:
CC(=O)Nc1ccc2[nH]c(-c3cccc(Cl)c3)cc(=O)c2c1 :: 23.8 µM
CNC(=O)OCc1c2ccncc2c(C)c2c1[nH]c1ccccc12 :: 1.8 µM
CCOC(=O)[C@@]12C[C@](/C=C/OC)(O[Si](C)(C)C)[C@@]13c1cc(OC)c(OC)cc1CCN3C(=O)C2O (stereo not given in full) :: > 100 µM
C=C(C)[C@@]1(OC(=O)c2cc([N+](=O)[O-])cc([N+](=O)[O-])c2)C[C@@H]2CCCC[C@@H]21 :: > 100 µM

// moving on: another record for TGI
Input: Fill blank: measured TGI of the compound Cc1oc2c(Cl)cc(O)c(Cl)c2c2cccc1-2 is ____.
Output: 64.9 µM

====

In this section we review reported TGI values for a set of molecules.
- Test system: EKVX NSCLC
- ASSAY_PROTOCOL: NCI tumour cell line growth inhibition, 48 h
Where a SMILES comes first, the peptide text is derived from it. The star is where a group is joined. Cbz = O=C(OCc1ccccc1)*; Boc = CC(C)(C)OC(=O)*; OSu = O=C1CCC(=O)N1O*; Bn = c1ccc(C*)cc1

Worked cases, TGI given:
O=C1Nc2c(C(F)(F)F)cccc2[C@@]1(c1ccc(O)cc1)c1ccc(OC(F)(F)F)cc1 :: 0.0351 µM
c1cc2c(c(NC3=NCCO3)c1)CCC2 :: > 100 µM
C[C@H](Nc1ncnc2nc[nH]c12)c1cc2ccc(F)cc2nc1-c1ccccn1 :: > 100 µM
CCOc1ccc(N/C(Cl)=C(Cl)\C(=C(\Nc2ccc(OCC)cc2)n2nnc3ccccc32)[N+](=O)[O-])cc1 :: 31.3 µM
CC[P+](C)(C)c1ccccc1 :: > 100 µM
C[n+]1c(-c2ccc(/C=N/NC(=O)C(=O)N/N=C/c3ccc(-c4cn5ccsc5[n+]4C)cc3)cc2)cn2ccsc21 :: > 100 µM
C=C[C@@H]1C[C@]2(C(=O)OC)Cc3nc4ccccc4nc3CC(C(=O)OC)=C2O1 :: > 100 µM
c1ccc(CNCCCCNCCCNCc2ccccc2)cc1 :: 57.3 µM
CCCCCCOc1ccc(C(=O)NO)cc1 :: 52.7 µM
O=C1c2ccccc2S(=O)(=O)N1CSC(=S)N1CCCCC1 :: > 100 µM

Input: Fill blank: measured TGI of the molecule CNC(=O)OCc1c2ccncc2c(C)c2c1[nH]c1ccccc12 is ____.
Output: 2.24 µM

Input: Fill blank: measured TGI of the molecule COc1ccc2c(c1)[n+](=O)c(C(=O)c1ccco1)c(C(F)(F)F)n2[O-] is ____.
Output: 9.81 µM

Input: Fill blank: measured TGI of the molecule Clc1ccc2c(c1)N(c1ncnc3ccc(-c4cnc5[nH]ccc5c4)cc13)CC2 is ____.
Output: 34.4 µM

Input: Fill blank: measured TGI of the molecule CC1=C/C(=N\O)C(C(O)(C(F)(F)F)C(F)(F)F)C(C)(C)C1 (configuration not stated) is ____.
Output: > 10 µM

Input: Fill blank: measured TGI of the molecule CC(C)(C)OC(=O)NC(Cc1ccc(OCc2ccccc2)cc1)C(=O)NC(CCCCNC(=O)OCc1ccccc1)C(=O)ON1C(=O)CCC1=O (configuration not stated) (Boc-Tyr(Bn)-Lys(Cbz)-OSu; configuration not given here) is ____.
Output: > 100 µM

Input: Fill blank: measured TGI of the molecule CCC[C@H](NS(=O)c1ccc(C)cc1)C(C(=O)OCC)=C(c1ccccc1)c1ccccc1 (some centres not stated) is ____.
Output: 38.6 µM

Input: Fill blank: measured TGI of the molecule COc1cccc(/C=N/[N-]C(N)=O)c1[O-].[Ni+2].[OH3+].c1ccc(-c2ccccn2)nc1 is ____.
Output: > 100 µM

====

- System: RXF 393 renal
- ASSAY_PROTOCOL: NCI tumour cell line growth inhibition, 48 h; in the data active = GI50 below about 0.43 µM; inactive = the rest
Your answer must be one of the following: 1 (yes) (active), 0 (no) (inactive)

O=C(/C(=C\c1ccc([N+](=O)[O-])cc1)S(=O)Cc1ccc(F)cc1)c1ccc(F)cc1 (stereo not given) :: 0 (no)
O=C1C(=O)c2c(nc3ccc(Br)cn23)-c2ccccc21 :: 0 (no)
C/C(=C\CCc1ccoc1)CC/C=C(\C)CCCN1CCOCC1 :: 0 (no)
Nc1nc2c(s1)CCc1c-2c(Br)n(Cc2ccccc2)c1Br :: 0 (no)
Clc1cccc(Cl)c1C1CSc2ccccc2N=C1c1ccccc1 (stereo not given) :: 0 (no)
CCOC(=O)n1cc(C2=C(c3cn(C)c4ccccc34)COC2=O)c2ccccc21 :: 1 (yes)
Cc1ccc(-c2cc3c(SCC(=O)Nc4cc(C(F)(F)F)ccc4Cl)nccn3n2)cc1 :: 0 (no)
Cn1cc(C2=C(c3cn(C)c4c([N+](=O)[O-])cccc34)C(=O)NC2=O)c2ccccc21 :: 0 (no)

Input: // outcome(item) with item = NC1CCC(Nc2nc(NCc3ccc(-c4cccs4)nc3)c3ncn(C4CCCC4)c3n2)CC1 (stereo not given)
Output: 1 (yes)

Input: // outcome(item) with item = COc1ccc2cc(-c3cc4c(oc3=O)-c3ccccc3OC4O)c(=O)oc2c1 (stereo not given)
Output: 0 (no)

====

- Tested on: PC-3 prostate
- ASSAY_PROTOCOL: NCI tumour cell line growth inhibition, 48 h
In this section we review reported TGI values for a set of compounds.

Worked cases, TGI given:
CCOC(=O)CSc1nnc2cc(CN3CCCC3)c(-c3ccc(Cl)cc3)nn12 :: > 100 µM
CC1COc2c(N3CCN(C)CC3)c(F)cc3c(=O)c(C(=O)O)cn1c23 (stereo unspecified) :: > 100 µM
CC(C)(C)C(=O)OCOP(=O)(OCOC(=O)C(C)(C)C)C1CC(O)N(O)C1=O (stereo unspecified) :: > 100 µM
CN(C)CCNC(=O)C(C)(C)Oc1ccc(C(=O)c2ccc(Cl)cc2)cc1Cl :: 24 µM
CNC(=O)N(CCC#N)CCCN(C(=O)NC)c1ccccc1 :: > 100 µM

Input: Fill blank: measured TGI of the compound C=CCSC1=N/C(=C\c2cccs2)C(=O)N1CC=C is ____.
Output: > 100 µM

Input: Fill blank: measured TGI of the compound Nc1cc(N2CCCC2)nc(=O)n1-c1ccccc1 is ____.
Output: > 100 µM

Input: Fill blank: measured TGI of the compound [O-][n+]1ccccc1S is ____.
Output: > 100 µM

Input: Fill blank: measured TGI of the compound COc1ccc(C(=O)COC(=O)[C@H](C[Se][Se]C[C@H](NC(=O)c2ccc(Br)cc2F)C(=O)OCC(=O)c2ccc(OC)cc2)NC(=O)c2ccc(Br)cc2F)cc1 is ____.
Output: 1.41 µM

Input: Fill blank: measured TGI of the compound c1ccc(CNCCCCNCCCNCc2ccccc2)cc1 is ____.
Output: 28.8 µM

Input: Fill blank: measured TGI of the compound COC(=O)C(=O)C(C(=O)C(=O)Nc1nc2ccc(C)cc2s1)c1nc2ccc([N+](=O)[O-])cc2[nH]c1=O (stereo unspecified) is ____.
Output: > 100 µM

Input: Fill blank: measured TGI of the compound CCOC(=O)n1cc(C2=C(c3cn(C)c4ccccc34)COC2=O)c2ccccc21 is ____.
Output: > 100 µM

Input: Fill blank: measured TGI of the compound CNC(=O)OCc1c2ccncc2c(C)c2c1[nH]c1ccccc12 is ____.
Output: 20.7 µM

Input: Fill blank: measured TGI of the compound N#Cc1c(N)[nH]c(=S)c(C#N)c1-c1ccccc1 is ____.
Output: > 100 µM

Input: Fill blank: measured TGI of the compound COc1cc2cccc(N)c2cc1OC is ____.
Output: > 100 µM

====

- System: NCI-H226 lung
- ASSAY_PROTOCOL: NCI tumour cell line growth inhibition, 48 h
In this section we review reported TGI values for a set of compounds.

OC1CCOc2ccccc21 (stereo unspecified) :: > 100 µM

Input: Fill blank: measured TGI of the compound CCCCC(Sc1cc(Cl)c(C)cc1S(=O)(=O)Nc1n[nH]c(N)n1)C(=O)OC (stereo unspecified) is ____.
Output: > 10 µM

Input: Fill blank: measured TGI of the compound COc1cc2cccc(N)c2cc1OC is ____.
Output: > 100 µM

Input: Fill blank: measured TGI of the compound CC1=NOC(=O)/C1=C/c1cccc2ccccc12 is ____.
Output: > 100 µM

Input: Fill blank: measured TGI of the compound O=C(c1ccccc1)[C@H]1Nc2ccc(Cl)cc2C2c3ccccc3CC21 (stereo partly specified) is ____.
Output: > 100 µM
